assaySystem: UniProt:P0DTD1
Assay type: binding
measureName: DSF Assay ΔTm (°C)
Write the number in °C without appending the unit.

Some compounds with known DSF Assay ΔTm results, for comparison:
O=C(Nc1ccc(O)c(O)c1)c1cccc(O)c1O [Exebryl-1]
0.1
CC1(C)C(=O)N=C2C1=C(O)C(=O)c1ccccc12 [BVT-948]
-11.8
O=C1C(NC2CCCCCCC2)=CC(=O)c2ncccc21 [Azaquinone]
-11.4
O=C1NC(=O)/C(=C\c2ccccc2)C2=C1CCCC2 [Tesimide]
-11.7
COC1=C(N)C(=O)c2nc(-c3nc(C(=O)O)c(C)c(-c4ccc(OC)c(OC)c4O)c3N)ccc2C1=O [Streptonigrin]
-11.5
O=C(Nc1cccc(C2=NCCN2)c1)c1ccc(-c2ccc(C(=O)Nc3cccc(C4=NCCN4)c3)cc2)cc1 [MMV1580853]
0.1

[Q] Specify reported DSF Assay ΔTm for the compound shown: C/C1=C2/[N-][C@H]([C@H](CC(N)=O)[C@@]2(C)CCC(=O)NC[C@@H](C)OP(=O)([O-])O[C@H]2[C@@H](O)[C@@H](n3cnc4cc(C)c(C)cc43)O[C@@H]2CO)[C@]2(C)N=C(/C(C)=C3N=C(/C=C4N=C1[C@@H](CCC(N)=O)C\4(C)C)[C@@H](CCC(N)=O)[C@]\3(C)CC(N)=O)[C@@H](CCC(N)=O)[C@]2(C)CC(N)=O.[CH3-].[Co+3] [Mecobalamin]
[A] -3.4

[Q] Specify reported DSF Assay ΔTm for the compound shown: COc1cccc2c1C(=O)c1c(O)c3c(c(O)c1C2=O)C[C@@](O)(C(=O)CO)C[C@@H]3O[C@H]1C[C@H](N)[C@H](O[C@@H]2CCCCO2)[C@H](C)O1 [pirarubicin]
[A] 0.4

These measurements were taken from paper PMC8062000.
